Each recorded value in this set is attributed to patent US20060182792A1.

Procedure details: Absolute oral bioavailability of liposomally administered octreotide per os in rats
Conditions used: Wistar, rat, in vivo, 100 μg per animal
Property label: bioavailability (%)
// units = %; emit number, no label

### Prompt For the compound C[C@@H](O)[C@@H]1NC(=O)[C@H](CCCCN)NC(=O)[C@@H](Cc2c[nH]c3ccccc23)NC(=O)[C@H](Cc2ccccc2)NC(=O)[C@@H](NC(=O)[C@H](N)Cc2ccccc2)CSSC[C@@H](C(=O)N[C@H](CO)[C@@H](C)O)NC1=O [Free, octreotide] , give its measured bioavailability value.
### Response 0.5
